Test system: NCI-H460
Method: Antiproliferative activity against human NCI-H460 cells by MTT assay
Format: functional, cell-based
Quantity Kind: pIC50
One number for each entry, as −log10 of the molar value.

COc1cccc2c1C(=O)c1c(O)c3c(c(O)c1C2=O)C[C@@](O)(C(=O)CO)C[C@@H]3O[C@H]1C[C@H](N)[C@H](O)[C@H](C)O1	8.00
C[C@@H]1C[C@H]2O[C@@H]2CC/C=C/C(=O)Cc2cc(O)cc(O)c2C(=O)O1	6.30

I'm hoping you can list pIC50 for every molecule here, please.
1. C[C@@H]1C[C@H]2O[C@@H]2/C=C\C=C\C(=O)Cc2cc(O)cc(O)c2C(=O)O1
2. C[C@@H]1C[C@H]2O[C@@H]2C[C@H](O)/C=C/C(=O)Cc2cc(O)cc(O)c2C(=O)O1

[6.46, 6.52]
